molecular target: human VWF (human); assay: ELISA
Sequence (P04275 whole entry): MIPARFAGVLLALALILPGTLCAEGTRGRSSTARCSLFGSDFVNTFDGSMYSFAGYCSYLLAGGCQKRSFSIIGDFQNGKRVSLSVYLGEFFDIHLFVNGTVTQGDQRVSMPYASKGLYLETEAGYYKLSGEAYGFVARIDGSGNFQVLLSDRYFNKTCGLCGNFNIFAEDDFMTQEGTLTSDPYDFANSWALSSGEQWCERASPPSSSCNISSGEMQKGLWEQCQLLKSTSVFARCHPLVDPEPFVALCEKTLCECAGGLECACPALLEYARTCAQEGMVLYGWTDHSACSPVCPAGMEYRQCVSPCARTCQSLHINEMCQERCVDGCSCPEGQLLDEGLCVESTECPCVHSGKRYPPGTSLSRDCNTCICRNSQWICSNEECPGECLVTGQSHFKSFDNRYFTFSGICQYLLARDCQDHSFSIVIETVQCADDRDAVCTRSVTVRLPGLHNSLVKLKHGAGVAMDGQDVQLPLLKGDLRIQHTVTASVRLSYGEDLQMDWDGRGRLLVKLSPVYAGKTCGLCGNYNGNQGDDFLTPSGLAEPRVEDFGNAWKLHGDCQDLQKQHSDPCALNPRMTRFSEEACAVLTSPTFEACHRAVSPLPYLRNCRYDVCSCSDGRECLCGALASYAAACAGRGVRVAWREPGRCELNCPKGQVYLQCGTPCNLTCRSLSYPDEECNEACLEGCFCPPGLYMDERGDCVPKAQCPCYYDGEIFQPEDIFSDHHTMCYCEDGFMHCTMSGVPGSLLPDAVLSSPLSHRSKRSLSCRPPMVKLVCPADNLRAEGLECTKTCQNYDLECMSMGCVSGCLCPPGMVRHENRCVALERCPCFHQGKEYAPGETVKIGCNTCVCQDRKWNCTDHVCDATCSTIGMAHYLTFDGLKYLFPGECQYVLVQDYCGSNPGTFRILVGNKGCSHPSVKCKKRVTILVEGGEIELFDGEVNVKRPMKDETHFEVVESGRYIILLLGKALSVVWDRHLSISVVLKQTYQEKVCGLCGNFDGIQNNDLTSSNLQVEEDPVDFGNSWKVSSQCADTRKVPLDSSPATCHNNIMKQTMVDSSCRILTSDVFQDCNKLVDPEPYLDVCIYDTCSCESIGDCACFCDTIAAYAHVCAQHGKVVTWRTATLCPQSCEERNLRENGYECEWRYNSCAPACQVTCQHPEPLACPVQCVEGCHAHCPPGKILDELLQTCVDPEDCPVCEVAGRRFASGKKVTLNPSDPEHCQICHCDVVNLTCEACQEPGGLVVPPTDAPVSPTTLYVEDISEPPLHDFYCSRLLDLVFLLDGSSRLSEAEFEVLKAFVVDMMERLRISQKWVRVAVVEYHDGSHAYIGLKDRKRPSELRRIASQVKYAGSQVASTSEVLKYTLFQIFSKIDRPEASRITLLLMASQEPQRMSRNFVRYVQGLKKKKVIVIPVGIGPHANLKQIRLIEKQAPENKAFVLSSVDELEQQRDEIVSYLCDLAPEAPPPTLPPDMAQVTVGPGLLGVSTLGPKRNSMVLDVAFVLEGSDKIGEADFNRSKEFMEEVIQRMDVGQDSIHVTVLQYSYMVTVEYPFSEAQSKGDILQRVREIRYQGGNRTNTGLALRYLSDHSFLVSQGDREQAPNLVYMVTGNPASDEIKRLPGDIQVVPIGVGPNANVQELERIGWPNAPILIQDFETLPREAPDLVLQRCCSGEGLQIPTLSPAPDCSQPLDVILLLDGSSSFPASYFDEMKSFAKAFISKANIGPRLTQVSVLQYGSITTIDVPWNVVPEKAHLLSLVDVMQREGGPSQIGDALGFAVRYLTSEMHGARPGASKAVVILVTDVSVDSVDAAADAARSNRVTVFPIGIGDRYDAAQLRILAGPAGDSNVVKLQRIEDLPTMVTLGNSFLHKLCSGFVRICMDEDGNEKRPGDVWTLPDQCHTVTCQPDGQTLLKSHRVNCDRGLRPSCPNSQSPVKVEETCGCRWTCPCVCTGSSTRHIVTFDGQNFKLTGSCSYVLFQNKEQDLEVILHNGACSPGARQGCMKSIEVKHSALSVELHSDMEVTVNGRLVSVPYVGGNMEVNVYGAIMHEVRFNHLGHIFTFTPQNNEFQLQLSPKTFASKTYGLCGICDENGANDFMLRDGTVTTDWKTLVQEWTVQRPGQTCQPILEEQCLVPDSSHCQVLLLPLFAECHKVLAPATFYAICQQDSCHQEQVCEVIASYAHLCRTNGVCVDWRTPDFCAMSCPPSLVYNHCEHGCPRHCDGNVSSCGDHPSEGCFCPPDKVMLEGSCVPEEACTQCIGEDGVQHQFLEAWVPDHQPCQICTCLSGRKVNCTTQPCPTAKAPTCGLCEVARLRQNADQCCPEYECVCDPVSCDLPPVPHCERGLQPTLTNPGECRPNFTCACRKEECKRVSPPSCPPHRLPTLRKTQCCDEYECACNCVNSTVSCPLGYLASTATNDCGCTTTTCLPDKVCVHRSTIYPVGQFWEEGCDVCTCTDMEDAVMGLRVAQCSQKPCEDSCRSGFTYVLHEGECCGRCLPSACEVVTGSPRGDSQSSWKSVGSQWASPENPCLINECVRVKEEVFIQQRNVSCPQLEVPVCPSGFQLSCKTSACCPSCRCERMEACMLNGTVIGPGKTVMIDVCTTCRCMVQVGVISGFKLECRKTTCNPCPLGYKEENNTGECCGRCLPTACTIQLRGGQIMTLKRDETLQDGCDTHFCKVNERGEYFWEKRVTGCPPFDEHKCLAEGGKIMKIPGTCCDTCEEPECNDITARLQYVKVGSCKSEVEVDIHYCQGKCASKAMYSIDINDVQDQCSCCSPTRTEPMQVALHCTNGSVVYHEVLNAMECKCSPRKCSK
Reported EC50 is given for each of the following binders.
Supply the numeric figure in µg/mL, leaving out any unit text.

Answered examples (3):
binder	endpoint label	reported
33D03_H5-L4 (antibody, V domains shown) VH: EVQLVQSGAEVKKPGASVKVSCKASGYTFTDYYLNWVRQAPGQRLEWMGIINPYNGGTNYNQRFKGRVTLTVDKSSSTAYMELSSLRSEDTAVYYCASEGLRTWFTYWGQGTLVTVSS VL: DIVMTQSPDSLAVSLGERATISCKSSQSLSNSGNQKIYLAWYQQKPGQPPKLLIYGASSRESGVPDRFSGSGSEIDFTLTISSLQAEDVAVYYCQNDHSHPFTFGQGTKLEIK	EC50	0.0365
25B05_H3-L2 (antibody, V domains shown) VH: EVQLVQSGAEVKKPGASVKVSCKASGYTFTDYFMNWVRQAPGQRLEWMGVINPHNGGTSYSQKFQGRVTITVDKSSSTAYMELSSLRSEDTAVYYCARRPLGSDYWGQGTTVTVSS VL: DIVMTQSPSSVSASVGDRVTITCKASQNVGTAVAWYQQKPGKAPKLLIYSASSRYTGVPSRFSGSGSGTDFTLTISSLQPEDFATYYCQQYSSYPLTFGQGTKLEIK	EC50	0.0516
33D03_H2-L2 (antibody, V domains shown) VH: QVQLVQSGAEVKKPGASVKVSCKASGYTFTDYYLNWVRQAPGQRLEWMGIINPYNGGTNYNQRFKGRVTITRDTSASTAYMELSSLRSEDTAVYYCASEGLRTWFTYWGQGTLVTVSS VL: DIVMTQSPDSLAVSLGERATISCKSSQSLSNSGNQKIYLAWYQQKPGQPPKLLIYGASSRESGVPDRFSGSGSGTDFTLTISSLQAEDVAVYYCQNDHSHPFTFGQGTKLEIK	EC50	0.0394

Query: Quick one: EC50 for 33D03_H4-L1 (antibody, V domains shown) VH: QVQLVQSGAEVKKPGASVKVSCKASGYTFTDYYLNWVRQAPGQRLEWMGIINPYNGGTNYNQRFKGRVTITVDKSSSTAYMELSSLRSEDTAVYYCASEGLRTWFTYWGQGTLVTVSS VL: DIVMTQSPDSLAVSLGERATINCKSSQSLSNSGNQKIYLAWYQQKPGQPPKLLIYGASSRESGVPDRFSGSGSGTDFTLTISSLQAEDVAVYYCQNDHSHPFTFGQGTKLEIK ?
Reply: 0.0381

Query: If you can, please state the reported EC50 value of 25B05_H4-L3 (antibody, V domains shown) VH: EVQLVQSGAEVKKPGASVKVSCKASGYTFTDYFMNWVRQAPGQRLEWMGVINPHNGGTSYSQKFQGRVTLTVDKSSSTAYMELSSLRSEDTAVYYCARRPLGSDYWGQGTTVTVSS VL: DIQMTQSPSSVSASVGDRVTITCKASQNVGTAVAWYQQKPGKAPKLLIYSASSRYTEVPDRFSGSGSGTDFTLTISSLQPEDFATYYCQQYSSYPLTFGQGTKLEIK .
Reply: 0.0271
